The values you see were collected from patent US7998975B2.

Molecular target: UniProt P31639
Sequence (P31639 whole entry): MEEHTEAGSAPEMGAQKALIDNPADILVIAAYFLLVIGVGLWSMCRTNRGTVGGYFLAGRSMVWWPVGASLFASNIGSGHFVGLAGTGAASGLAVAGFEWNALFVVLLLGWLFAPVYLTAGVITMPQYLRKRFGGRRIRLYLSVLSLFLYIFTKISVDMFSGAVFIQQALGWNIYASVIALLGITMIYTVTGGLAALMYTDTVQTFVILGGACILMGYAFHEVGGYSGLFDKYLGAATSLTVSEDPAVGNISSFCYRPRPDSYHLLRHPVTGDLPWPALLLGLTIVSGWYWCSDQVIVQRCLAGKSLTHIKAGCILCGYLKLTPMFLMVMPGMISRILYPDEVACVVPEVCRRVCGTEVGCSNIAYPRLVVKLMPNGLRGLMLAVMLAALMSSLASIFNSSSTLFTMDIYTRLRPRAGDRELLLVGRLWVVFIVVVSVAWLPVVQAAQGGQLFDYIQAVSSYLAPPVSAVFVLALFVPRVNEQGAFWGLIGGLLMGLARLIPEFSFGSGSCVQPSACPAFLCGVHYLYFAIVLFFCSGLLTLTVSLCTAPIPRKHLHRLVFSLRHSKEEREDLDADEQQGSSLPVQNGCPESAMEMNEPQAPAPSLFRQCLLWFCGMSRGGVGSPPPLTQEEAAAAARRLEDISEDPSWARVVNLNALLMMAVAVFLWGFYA
Assay: Assay for inhibitory effects on human SGLT2 activity (uptake of methyl-α-D-glucopyranoside in CS2-5E cells)
Details: inhibition of 14C α-MG uptake, CHO-K1 derived CS2-5E cells stably expressing human SGLT2, 1 mM α-MG, 37° C., 1 hour
readout_kind: IC50 (nM)

OCCn1nc(O[C@@H]2O[C@H](CO)[C@@H](O)[C@H](O)[C@H]2O)c2c(CCc3ccccc3)ccnc21: 68
OC[C@H]1O[C@@H](Oc2n[nH]c3cccc(CCc4ccccc4)c23)[C@H](O)[C@@H](O)[C@@H]1O: 90
